Reported TGI values follow for various compounds
System: 786-0 renal
ASSAY NOTES: NCI tumour cell line growth inhibition, 48 h

1. O=[N+]([O-])/C(Cl)=C(\NCCN/C(C(Cl)=C(Cl)Cl)=C(/Cl)[N+](=O)[O-])C(Cl)=C(Cl)Cl	> 100 µM
2. Cn1c(=O)nc2n(-c3ccc(Cl)c(C(F)(F)F)c3)c3ccccc3nc-2c1=O	> 100 µM
3. C(=C\c1ccccc1)/COc1ccccc1C(N1CCOCC1)n1nc2ccccc2n1 (centres undefined)	15.8 µM

Shifting focus to the compound that follows.
## Input Which TGI value is on record for CN(C)C(=S)Nc1nnc(Nc2ccccc2)s1 ?
## Output > 100 µM

Attribution: PubChem BioAssay (NCI)
